Sourced from the kinase profiling compilation of Christmann-Franck et al. (2016)

TESTED_ON: UniProtKB Q9P1W9
Sequence (Q9P1W9 whole entry, looked up): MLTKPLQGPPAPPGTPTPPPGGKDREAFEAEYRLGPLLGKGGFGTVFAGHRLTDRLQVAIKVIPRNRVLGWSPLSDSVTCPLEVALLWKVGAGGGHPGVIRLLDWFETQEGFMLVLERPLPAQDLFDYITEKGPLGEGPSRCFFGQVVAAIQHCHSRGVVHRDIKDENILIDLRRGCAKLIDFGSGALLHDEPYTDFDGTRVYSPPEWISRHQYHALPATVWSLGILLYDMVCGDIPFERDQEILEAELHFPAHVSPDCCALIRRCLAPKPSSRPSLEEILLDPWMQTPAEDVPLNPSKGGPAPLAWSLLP
PROTOCOL_TEXT: radiometric filter-binding kinase assay, Kinase HotSpot
CONDITION_INFO: compound 0.5 µM; ATP 10 µM
// values below are reported residual activity
ENDPOINT_NAME: residual activity (%)

>>> number("COc1ccc(OC)c2c(=S)c3ccccc3[nH]c12")
103
>>> number("CN([C@@H](Cc1ccc(OS(=O)(=O)c2cccc3cnccc23)cc1)C(=O)N1CCN(c2ccccc2)CC1)S(=O)(=O)c1cccc2cnccc12")
98.5
>>> number("COc1ccc(CNC(=O)Nc2ncc([N+](=O)[O-])s2)cc1")
94.5
>>> number("CCN(CC)CCCCN1c2ccccc2Oc2ccc(Cl)cc21")
109
>>> number("CC(=O)O/N=C1\\C(=C2\\C(=O)Nc3cc(Br)ccc32)Nc2ccccc21")
93.2
>>> number("CC(C)[C@H](CO)Nc1nc(Nc2cc(N)cc(Cl)c2)c2ncn(C(C)C)c2n1")
113
>>> number("Cn1sc(=O)n(Cc2ccccc2)c1=O")
107
>>> number("O=C1Nc2ccccc2/C1=C1/Nc2ccccc2/C1=N\\OCCC(O)CO (stereo unspecified)")
99.5
>>> number("COc1cc2ncnc(N3CCN(C(=O)Nc4ccc(Oc5ccccc5)cc4)CC3)c2cc1OC")
101
>>> number("O=C1NC(=O)/C(=C\\c2ccc3nccnc3c2)S1")
100
>>> number("Nc1nccc(-c2c(-c3ccc(F)cc3)ncn2C2CCNCC2)n1")
100

* * *

TESTED_ON: DAPK1 (human)
PROTOCOL_TEXT: radiometric filter-binding kinase assay, Kinase HotSpot
CONDITION_INFO: compound 0.5 µM; ATP 10 µM
// values below are reported residual activity
ENDPOINT_NAME: residual activity (%)

>>> number("Nc1nnc2[nH]c3ccccc3nc1-2")
91.5
>>> number("O=C(CCCc1ccc(-c2ccccc2F)cc1)Nc1ccc(O)cc1")
110
>>> number("O=C(O)/C=C/c1cc(Br)c(Br)c(Br)c1Br")
73.7
>>> number("O=C1NC(=O)/C(=C\\c2ccc3nccnc3c2)S1")
105
>>> number("O=C(Nc1cccc(Nc2cc(Nc3cccc(C(F)(F)F)c3)ncn2)c1)C1CC1")
94.7
>>> number("COc1ccc(CNC(=O)Nc2ncc([N+](=O)[O-])s2)cc1")
105

* * *

TESTED_ON: BLK (human) (UniProt P51451)
Sequence (P51451 whole entry, looked up): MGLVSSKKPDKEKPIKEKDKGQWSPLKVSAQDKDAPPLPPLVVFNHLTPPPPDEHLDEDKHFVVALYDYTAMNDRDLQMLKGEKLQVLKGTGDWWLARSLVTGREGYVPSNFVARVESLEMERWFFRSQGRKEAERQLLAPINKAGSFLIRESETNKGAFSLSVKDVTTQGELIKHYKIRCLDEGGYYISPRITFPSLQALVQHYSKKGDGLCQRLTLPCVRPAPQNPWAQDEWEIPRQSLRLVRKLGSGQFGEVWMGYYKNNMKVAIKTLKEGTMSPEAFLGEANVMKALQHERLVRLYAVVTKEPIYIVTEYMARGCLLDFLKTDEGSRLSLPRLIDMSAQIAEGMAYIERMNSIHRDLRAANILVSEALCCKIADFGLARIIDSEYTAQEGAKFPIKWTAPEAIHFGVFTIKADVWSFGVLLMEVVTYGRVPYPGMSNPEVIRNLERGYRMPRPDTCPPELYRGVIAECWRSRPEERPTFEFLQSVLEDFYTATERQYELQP
PROTOCOL_TEXT: radiometric filter-binding kinase assay, Kinase HotSpot
CONDITION_INFO: compound 0.5 µM; ATP 10 µM
ENDPOINT_NAME: residual activity (%)

>>> number("CC(=O)O/N=C1\\C(=C2\\C(=O)Nc3cc(Br)ccc32)Nc2ccccc21")
25.6
>>> number("O=C1NC(=O)/C(=C\\c2ccc3nccnc3c2)S1")
99.4
>>> number("Cn1sc(=O)n(Cc2ccccc2)c1=O")
101
>>> number("Nc1nnc2[nH]c3ccccc3nc1-2")
96.6
>>> number("CCn1cnc2c(Nc3cccc(Cl)c3)nc(N[C@@H]3CCCC[C@@H]3N)nc21")
87.1
>>> number("COc1cc2ncc(-c3ccccc3)nc2cc1OC")
103
>>> number("O=C1NC(=O)C(c2cn(CCCO)c3ncccc23)=C1c1cnccn1")
87.1
>>> number("Cn1nc2c3c(cccc31)C(=O)c1ccccc1-2")
106
>>> number("Cc1nc2cc3nc(-c4cccs4)cnc3cc2n1C")
99.8
>>> number("O=C1Nc2ccccc2/C1=C1/Nc2ccccc2/C1=N\\OCCC(O)CO (stereo not given)")
39.1
>>> number("O=C(Nc1cccc(Nc2cc(Nc3cccc(C(F)(F)F)c3)ncn2)c1)C1CC1")
101
>>> number("COc1cc2ncnc(N3CCN(C(=O)Nc4ccc(Oc5ccccc5)cc4)CC3)c2cc1OC")
113
>>> number("O=C1NC(=O)C(c2c[nH]c3ccccc23)=C1c1c[nH]c2ccccc12")
93.7
>>> number("O=C(CCCc1ccc(-c2ccccc2F)cc1)Nc1ccc(O)cc1")
101
>>> number("Nc1nccc(-c2c(-c3ccc(F)cc3)ncn2C2CCNCC2)n1")
102

* * *

TESTED_ON: UniProt O14965
Sequence (O14965 whole entry, looked up): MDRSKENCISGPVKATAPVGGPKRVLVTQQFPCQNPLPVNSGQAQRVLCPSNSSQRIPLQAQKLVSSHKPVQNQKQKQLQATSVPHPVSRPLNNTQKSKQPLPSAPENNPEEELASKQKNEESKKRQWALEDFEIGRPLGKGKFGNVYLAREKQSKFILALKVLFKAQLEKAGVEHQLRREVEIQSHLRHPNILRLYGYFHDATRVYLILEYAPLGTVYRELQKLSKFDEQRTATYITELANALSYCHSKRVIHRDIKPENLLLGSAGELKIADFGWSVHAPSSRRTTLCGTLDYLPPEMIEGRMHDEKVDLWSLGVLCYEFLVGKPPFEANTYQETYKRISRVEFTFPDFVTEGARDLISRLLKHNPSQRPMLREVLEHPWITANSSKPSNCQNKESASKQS
PROTOCOL_TEXT: radiometric filter-binding kinase assay, Kinase HotSpot
CONDITION_INFO: compound 0.5 µM; ATP 10 µM
Param label: returns Condition met when residual activity < 90%, returns Condition not met otherwise, including exact equality.

>>> classification("O=C1NC(=O)C(c2c[nH]c3ccccc23)=C1c1c[nH]c2ccccc12")
"Condition not met"
>>> classification("CC(=O)O/N=C1\\C(=C2\\C(=O)Nc3cc(Br)ccc32)Nc2ccccc21")
"Condition met"
>>> classification("O=C1Nc2ccccc2/C1=C1/Nc2ccccc2/C1=N\\OCCC(O)CO (stereo not given)")
"Condition met"

* * *

TESTED_ON: GRK6 (human)
PROTOCOL_TEXT: radiometric filter-binding kinase assay, Kinase HotSpot
CONDITION_INFO: compound 0.5 µM; ATP 10 µM
ENDPOINT_NAME: residual activity (%)

>>> number("COc1ccc(CNC(=O)Nc2ncc([N+](=O)[O-])s2)cc1")
99.6
>>> number("Cn1cnc2cc3c(Nc4cccc(Br)c4)ncnc3cc21")
107
>>> number("O=C(Nc1cccc(Nc2cc(Nc3cccc(C(F)(F)F)c3)ncn2)c1)C1CC1")
98.3
>>> number("COc1cc2ncc(-c3ccccc3)nc2cc1OC")
92.8
>>> number("O=C1NC(=O)/C(=C\\c2ccc3nccnc3c2)S1")
97
>>> number("O=C1NC(=O)C(c2c[nH]c3ccccc23)=C1c1c[nH]c2ccccc12")
101
>>> number("CCn1cnc2c(Nc3cccc(Cl)c3)nc(N[C@@H]3CCCC[C@@H]3N)nc21")
99.6
>>> number("CC(C)[C@H](CO)Nc1nc(Nc2cc(N)cc(Cl)c2)c2ncn(C(C)C)c2n1")
72.1
>>> number("CN([C@@H](Cc1ccc(OS(=O)(=O)c2cccc3cnccc23)cc1)C(=O)N1CCN(c2ccccc2)CC1)S(=O)(=O)c1cccc2cnccc12")
101
>>> number("O=C1Cc2c([nH]c3ccc(Br)cc23)-c2ccccc2N1")
105
>>> number("O=C1Nc2ccccc2/C1=C1\\Nc2ccccc2\\C1=N/O")
89.4
>>> number("CC(=O)O/N=C1\\C(=C2\\C(=O)Nc3cc(Br)ccc32)Nc2ccccc21")
88.5
>>> number("O=C1Nc2ccccc2/C1=C1/Nc2ccccc2/C1=N\\OCCC(O)CO (configuration not stated)")
53.1
>>> number("Nc1nnc2[nH]c3ccccc3nc1-2")
104
>>> number("Nc1nccc(-c2c(-c3ccc(F)cc3)ncn2C2CCNCC2)n1")
98.2
>>> number("O=C(CCCc1ccc(-c2ccccc2F)cc1)Nc1ccc(O)cc1")
104
>>> number("Cn1nc2c3c(cccc31)C(=O)c1ccccc1-2")
89.2
>>> number("CCN(CC)CCCCN1c2ccccc2Oc2ccc(Cl)cc21")
88.4
>>> number("Cn1sc(=O)n(Cc2ccccc2)c1=O")
104
>>> number("Cc1nc2cc3nc(-c4cccs4)cnc3cc2n1C")
104
>>> number("COc1ccc(OC)c2c(=S)c3ccccc3[nH]c12")
97.2
>>> number("CC(C)c1nn(-c2c(Cl)cccc2Cl)c2nc(Cc3ccc(OCCO)cc3)nc(O)c12")
101
>>> number("Oc1ccc(Nc2nc(-c3ccc(Cl)cc3)cs2)cc1")
100
>>> number("CN(C)C[C@H]1CCn2c(c(C3=C(c4cn(C)c5ccccc45)C(=O)NC3=O)c3ccccc32)C1")
66.4
>>> number("O=C(O)/C=C/c1cc(Br)c(Br)c(Br)c1Br")
97.2
>>> number("O=C1NC(=O)C(c2cn(CCCO)c3ncccc23)=C1c1cnccn1")
102
>>> number("COc1cc2ncnc(N3CCN(C(=O)Nc4ccc(Oc5ccccc5)cc4)CC3)c2cc1OC")
96.4

* * *

TESTED_ON: UniProt:P49840
Sequence (P49840 whole entry, looked up): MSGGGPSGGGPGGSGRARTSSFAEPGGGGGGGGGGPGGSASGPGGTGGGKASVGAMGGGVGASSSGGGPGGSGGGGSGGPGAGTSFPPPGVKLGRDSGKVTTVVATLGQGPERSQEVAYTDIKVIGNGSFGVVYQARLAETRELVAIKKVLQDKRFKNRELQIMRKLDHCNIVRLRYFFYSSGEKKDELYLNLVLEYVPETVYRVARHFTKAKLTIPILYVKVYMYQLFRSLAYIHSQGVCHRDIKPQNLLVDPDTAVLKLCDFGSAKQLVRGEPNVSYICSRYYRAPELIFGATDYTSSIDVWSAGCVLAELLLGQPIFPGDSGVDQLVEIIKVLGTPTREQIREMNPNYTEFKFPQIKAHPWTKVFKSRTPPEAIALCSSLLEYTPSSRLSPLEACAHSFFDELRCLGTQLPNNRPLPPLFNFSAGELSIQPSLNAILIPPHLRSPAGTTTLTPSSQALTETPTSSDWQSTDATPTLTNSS
PROTOCOL_TEXT: radiometric filter-binding kinase assay, Kinase HotSpot
CONDITION_INFO: compound 0.5 µM; ATP 10 µM
Param label: returns YES when residual activity < 70%, returns NO otherwise, including exact equality.

>>> classification("COc1ccc(CNC(=O)Nc2ncc([N+](=O)[O-])s2)cc1")
"YES"
>>> classification("O=C1NC(=O)C(c2c[nH]c3ccccc23)=C1c1c[nH]c2ccccc12")
"YES"
>>> classification("O=C1Cc2c([nH]c3ccc(Br)cc23)-c2ccccc2N1")
"YES"
>>> classification("Cc1nc2cc3nc(-c4cccs4)cnc3cc2n1C")
"NO"
>>> classification("COc1cc2ncc(-c3ccccc3)nc2cc1OC")
"NO"
>>> classification("O=C1NC(=O)/C(=C\\c2ccc3nccnc3c2)S1")
"NO"
>>> classification("Cn1sc(=O)n(Cc2ccccc2)c1=O")
"NO"
>>> classification("CN(C)C[C@H]1CCn2c(c(C3=C(c4cn(C)c5ccccc45)C(=O)NC3=O)c3ccccc32)C1")
"YES"
>>> classification("CC(C)c1nn(-c2c(Cl)cccc2Cl)c2nc(Cc3ccc(OCCO)cc3)nc(O)c12")
"NO"
>>> classification("CC(C)[C@H](CO)Nc1nc(Nc2cc(N)cc(Cl)c2)c2ncn(C(C)C)c2n1")
"NO"
>>> classification("Cn1nc2c3c(cccc31)C(=O)c1ccccc1-2")
"NO"
